Biological target: T1, human GIP receptor (human, UniProt P48546 22-466)
T1 sequence (looked up): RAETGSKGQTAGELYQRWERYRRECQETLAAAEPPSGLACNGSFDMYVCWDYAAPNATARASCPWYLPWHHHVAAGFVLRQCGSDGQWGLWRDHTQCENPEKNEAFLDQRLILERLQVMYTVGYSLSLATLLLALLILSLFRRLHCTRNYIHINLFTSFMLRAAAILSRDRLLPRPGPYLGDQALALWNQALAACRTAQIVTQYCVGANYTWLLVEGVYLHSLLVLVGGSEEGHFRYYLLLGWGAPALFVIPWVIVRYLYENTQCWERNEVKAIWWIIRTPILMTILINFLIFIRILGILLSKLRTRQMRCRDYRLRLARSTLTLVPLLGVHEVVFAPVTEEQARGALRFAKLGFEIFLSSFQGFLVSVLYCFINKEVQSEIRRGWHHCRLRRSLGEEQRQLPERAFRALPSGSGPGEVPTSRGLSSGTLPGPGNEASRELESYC
Assay: cell-based or functional assay
Positions of bridges follow the written chain, without caps; N, C: chain ends. Non-standard residues stand in square brackets, D forms with d. No end group written: not given here. *: point of attachment. Acetyl(2-(4-imidazolyl)) = O=C(Cc1c[nH]cn1)*; Aib = CC(C)(N)C(=O)O
MEASUREMENT_TYPE: In vitro activity relative to native peptide (%), vs. GIP (cAMP EC50)

What In vitro activity relative to native peptide (%), vs. GIP (cAMP EC50) value was documented for this binder, {Acetyl(2-(4-imidazolyl))}-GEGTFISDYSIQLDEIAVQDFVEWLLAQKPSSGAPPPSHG [trigonal agonist of SEQ ID NO: 13] ?
< 0.1%

Given the binder Y[Aib]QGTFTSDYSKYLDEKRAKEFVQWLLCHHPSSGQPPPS (bridge 16-20) [trigonal agonist of SEQ ID NO: 95] , what is its reported In vitro activity relative to native peptide (%), vs. GIP (cAMP EC50)?
< 0.1%

Please give the measured In vitro activity relative to native peptide (%), vs. GIP (cAMP EC50) for this binder: Y[Aib]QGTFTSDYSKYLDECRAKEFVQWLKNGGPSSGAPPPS (bridge 16-20) [trigonal agonist of SEQ ID NO: 24]
< 0.1%
